Source: paper PMC10751545

target: GPR158-RGS7/Gβ5 complex (Homo sapiens, UniProt Q5T848); test: BRET-based GAP assay
pIC50: −log10 of the molar value.
OBSERVABLE: pIC50

Query string: Output pIC50 of "NCCS(=O)(=O)O"
Result string: ~5.22

* * *

molecular target: UniProtKB Q5T848; experiment: Binding competition, displacement of [3H]-glycine bound to GPR158; settings: read-out: IC50, displacement of [3H]-glycine bound to GPR158
OBSERVABLE: IC50

Query string: Enter recorded IC50 with UniProtKB Q5T848 for "NCC(=O)O" here.
Result string: ~3000 nM

* * *

Target: GPR158 (Homo sapiens, UniProt Q5T848)
Sequence (Q5T848 24-1215): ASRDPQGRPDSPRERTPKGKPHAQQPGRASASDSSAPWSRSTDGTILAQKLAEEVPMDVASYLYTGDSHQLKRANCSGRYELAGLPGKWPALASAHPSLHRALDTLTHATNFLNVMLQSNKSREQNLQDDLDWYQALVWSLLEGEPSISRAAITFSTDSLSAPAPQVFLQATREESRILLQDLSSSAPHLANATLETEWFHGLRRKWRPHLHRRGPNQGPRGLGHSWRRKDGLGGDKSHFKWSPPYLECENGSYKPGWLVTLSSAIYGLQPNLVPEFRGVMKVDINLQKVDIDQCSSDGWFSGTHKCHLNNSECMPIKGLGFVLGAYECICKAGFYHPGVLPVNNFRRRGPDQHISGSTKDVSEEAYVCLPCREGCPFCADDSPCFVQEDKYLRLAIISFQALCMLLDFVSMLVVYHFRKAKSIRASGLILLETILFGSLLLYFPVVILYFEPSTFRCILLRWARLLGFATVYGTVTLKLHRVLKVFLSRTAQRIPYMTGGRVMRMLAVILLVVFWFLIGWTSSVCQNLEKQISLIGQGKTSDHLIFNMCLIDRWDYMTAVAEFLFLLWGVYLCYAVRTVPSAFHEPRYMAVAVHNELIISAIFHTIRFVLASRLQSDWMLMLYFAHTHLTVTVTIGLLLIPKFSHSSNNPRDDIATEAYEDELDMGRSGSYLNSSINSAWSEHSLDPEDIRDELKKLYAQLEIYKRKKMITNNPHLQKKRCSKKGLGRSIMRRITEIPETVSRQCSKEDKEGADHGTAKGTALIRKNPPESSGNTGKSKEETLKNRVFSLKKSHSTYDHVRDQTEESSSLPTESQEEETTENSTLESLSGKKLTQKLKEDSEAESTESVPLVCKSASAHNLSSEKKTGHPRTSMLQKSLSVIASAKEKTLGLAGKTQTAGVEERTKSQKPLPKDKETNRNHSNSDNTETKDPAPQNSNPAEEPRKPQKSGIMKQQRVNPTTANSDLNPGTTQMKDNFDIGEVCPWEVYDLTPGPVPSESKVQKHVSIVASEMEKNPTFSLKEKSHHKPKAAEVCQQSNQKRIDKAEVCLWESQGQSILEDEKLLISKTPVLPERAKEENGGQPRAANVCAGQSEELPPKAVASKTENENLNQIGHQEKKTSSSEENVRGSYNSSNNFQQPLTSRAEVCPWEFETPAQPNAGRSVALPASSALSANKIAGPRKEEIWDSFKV
OBSERVABLE: Kd

Query string: Output Kd of "NCC(=O)O"
Result string: ~3000 nM
